Target: NA transporter (Rattus norvegicus)
Sequence (Q63380 1-617): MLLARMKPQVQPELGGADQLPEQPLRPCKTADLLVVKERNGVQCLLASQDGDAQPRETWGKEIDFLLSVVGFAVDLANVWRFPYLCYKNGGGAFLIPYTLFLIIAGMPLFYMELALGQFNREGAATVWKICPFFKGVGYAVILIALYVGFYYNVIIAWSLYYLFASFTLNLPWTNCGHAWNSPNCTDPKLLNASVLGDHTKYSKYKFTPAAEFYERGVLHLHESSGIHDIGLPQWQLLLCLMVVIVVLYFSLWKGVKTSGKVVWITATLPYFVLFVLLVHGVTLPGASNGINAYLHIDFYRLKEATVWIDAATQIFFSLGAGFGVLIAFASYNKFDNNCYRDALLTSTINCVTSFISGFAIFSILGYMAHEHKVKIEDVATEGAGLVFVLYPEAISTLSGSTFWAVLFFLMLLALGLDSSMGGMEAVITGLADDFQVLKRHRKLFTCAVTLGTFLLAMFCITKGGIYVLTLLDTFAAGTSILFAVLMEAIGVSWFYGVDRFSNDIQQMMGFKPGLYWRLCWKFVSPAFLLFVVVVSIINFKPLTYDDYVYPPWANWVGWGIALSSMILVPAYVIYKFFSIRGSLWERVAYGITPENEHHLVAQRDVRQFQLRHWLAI
Assay: ^3H-uptake rat, NA transporter
MEASURED_METRIC: IC50 (µM)

1. O=c1ccc2ccc(O[C@@H]3C[C@H]4CC[C@@H](C3)N4)cc2o1 [Compound (I)]; 0.085

====

Assay: Linearity after single s.c. dose in rat
Format: in vivo
Details: male, Wistar, plasma, sc; rat, 5 mg/kg s.c.
MEASURED_METRIC: AUC(0-inf) (ng·h/mL)

1) O=c1ccc2ccc(O[C@@H]3C[C@H]4CC[C@@H](C3)N4)cc2o1 [Compound (I)]; 604

====

Assay: Exposure and tissue distribution after 14 days repeat dosing, mouse
Assay type: in vivo
Conditions: NMRI, mouse, brain, po; Male mice, 60 mg/kg p.o. 14 days, 2 h post last dose; read-out: Brain concentration
MEASURED_METRIC: concentration at 2 h (ng/g)

1. O=c1ccc2ccc(O[C@@H]3C[C@H]4CC[C@@H](C3)N4)cc2o1; 8080
